- system: T1, rat IL-25 expressed with a C-terminal myc-myc-hexahistidine tag (rat)
- T1 construct: also called Rat IL-25-MMH
- T1 chain: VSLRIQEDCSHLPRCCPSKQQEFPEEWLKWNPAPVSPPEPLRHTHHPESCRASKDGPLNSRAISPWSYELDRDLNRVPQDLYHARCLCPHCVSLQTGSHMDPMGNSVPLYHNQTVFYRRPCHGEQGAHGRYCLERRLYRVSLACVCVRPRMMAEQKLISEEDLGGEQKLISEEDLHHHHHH
- testName: SPR Biacore, antibody captured, 25C;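 note: purified anti-IL-25 antibodies were tested by real-time surface plasmon resonance on a Biacore 4000, with rate constants obtained from sensorgram fits to a 1:1 binding model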
Quick reference: kon of the listed items.
quantityName: kon (M⁻¹ s⁻¹)

[[record]]
binder = "H4H10897P (antibody, human IgG4, V domains shown, H4H prefix = human IgG4 Fc) VH: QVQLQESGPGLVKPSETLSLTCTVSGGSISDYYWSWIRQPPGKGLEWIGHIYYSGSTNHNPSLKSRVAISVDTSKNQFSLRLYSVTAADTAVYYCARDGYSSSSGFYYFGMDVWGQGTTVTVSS VL: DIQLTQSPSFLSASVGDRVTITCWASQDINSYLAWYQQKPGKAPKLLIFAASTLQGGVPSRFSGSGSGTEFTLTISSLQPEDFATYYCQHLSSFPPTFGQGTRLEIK"
valuemeasured = 333000

[[record]]
binder = "H4H10876P (antibody, human IgG4, V domains shown, H4H prefix = human IgG4 Fc) VH: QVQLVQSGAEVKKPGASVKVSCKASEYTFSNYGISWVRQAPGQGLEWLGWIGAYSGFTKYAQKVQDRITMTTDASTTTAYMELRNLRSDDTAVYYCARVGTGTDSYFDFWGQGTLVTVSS VL: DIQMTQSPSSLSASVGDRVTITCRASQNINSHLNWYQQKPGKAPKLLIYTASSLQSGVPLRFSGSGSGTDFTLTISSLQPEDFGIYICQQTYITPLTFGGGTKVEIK"
valuemeasured = 259000

[[record]]
binder = "H4H10871P (antibody, human IgG4, V domains shown, H4H prefix = human IgG4 Fc) VH: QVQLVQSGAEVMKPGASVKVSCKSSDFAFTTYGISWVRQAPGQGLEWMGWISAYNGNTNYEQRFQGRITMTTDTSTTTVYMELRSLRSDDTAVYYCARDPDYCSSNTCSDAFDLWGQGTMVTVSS VL: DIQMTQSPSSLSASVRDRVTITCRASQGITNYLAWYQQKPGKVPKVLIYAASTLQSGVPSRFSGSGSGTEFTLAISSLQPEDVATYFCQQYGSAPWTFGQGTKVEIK"
valuemeasured = 548000

